# Read-out: Plasminogen activator inhibitor-1 (PAI1), SERPINE1 (gene 5054)
# ASSAY: BSK_BE3C_PAI1: BioMAP Diversity Plus: BE3C Assay for Plasminogen activator inhibitor-1 (PAI1) Biomarker Activity (AID 2283037)
# RUN PARAMETERS: primary human bronchial epithelial cells; actives raise or lower the signal
Activity calls are given as the source filed them. Rule for the calls: active = hit-call score of the fitted dose curve at least 0.9, where 1 is the maximum; inactive = score below 0.9.
Outcome field: choose from 1 (yes) (active), 0 (no) (inactive)

INSERT INTO assay_data (compound, class_name) VALUES
  ('OC1CCC(C2CCCCC2)CC1 (configuration not stated)', '0 (no)');

Ask: GET /call?item= CCc1nn(C2CCCCC2)c2cc(C3(C#N)CCC(C(=O)O)CC3)ccc12 (configuration not stated) returns the recorded outcome of this test.
Result: 1 (yes)

Ask: GET /call?item= `CC#C[C@]1(O)CC[C@H]2[C@@H]3CCC4=CC(=O)CCC4=C3[C@@H](c3ccc(N(C)C)cc3)C[C@@]21C` returns the recorded outcome of this test.
Result: 1 (yes)

Ask: GET /call?item= `CC(C)(C)c1cccc(C(C)(C)C)c1O` returns the recorded outcome of this test.
Result: 0 (no)

Ask: GET /call?item= `O=C(OCCOCCOC(=O)c1ccccc1)c1ccccc1` returns the recorded outcome of this test.
Result: 0 (no)

Ask: GET /call?item= `CC(C)(C)CC(C)(C)c1ccc(O)c(-n2nc3ccccc3n2)c1` returns the recorded outcome of this test.
Result: 0 (no)

Ask: GET /call?item= `CCCCCCCC(=O)O` returns the recorded outcome of this test.
Result: 0 (no)

---

# ASSAY: STM_H9_CystineISnorm_perc: Stemina devTOX quickPredict H9 human embryonic stem cell (hESC)-based Assay for Cystine (CYSS) Metabolite Biomarker, Normalized (AID 2283713)
# Text: STM_H9_secretome utilizes undifferentiated H9 cells to measure relative changes in two metabolites, ornithine (ORN) and cystine (CYSS) in the secretome, targeting a critical drop in the ORN/CYSS ratio as a biomarker for developmental toxicity.STM_H9_CystineISnorm_perc is one of 10 components calculated in the STM_H9_secretome assay. […]
Active and inactive are the calls of the source. How the source made its calls: active means hit-call score of the fitted dose curve at least 0.9, where 1 is the maximum; inactive means score below 0.9.
Outcome field: choose from active, inactive

Ask: GET /call?item= `CN(C)C=O` returns the recorded outcome of this test.
Result: inactive

Ask: GET /call?item= `CN1CCC[C@H]1c1cccnc1` returns the recorded outcome of this test.
Result: inactive

---

# Read-out: urokinase plasminogen activator (uPA), PLAU (gene 5328)
# ASSAY: BSK_BE3C_uPA: BioMAP Diversity Plus: BE3C Assay for urokinase plasminogen activator (uPA) Biomarker Activity (AID 2283038);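 for Outcome: uPA protein level quantified by ELISA in cell cultures; uPA read one day after compound addition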
# RUN PARAMETERS: primary human bronchial epithelial cells; actives raise or lower the signal
Calls of active or inactive are those of the source. Rule for the calls: active = hit-call score of the fitted dose curve at least 0.9, where 1 is the maximum; inactive = score below 0.9.
Outcome field: choose from 1 (yes) (active), 0 (no) (inactive)

Ask: GET /call?item= `CC(=O)NC1(c2cccc(F)c2)CCN(CC[C@@]2(c3ccc(Cl)c(Cl)c3)CN(c3ccccc3)C(=O)CO2)CC1` returns the recorded outcome of this test.
Result: 1 (yes)

Ask: GET /call?item= `Oc1cc2ccccc2c2ccccc12` returns the recorded outcome of this test.
Result: 1 (yes)

Ask: GET /call?item= `CC[C@H](C)[C@@H](C(=O)O)n1sc2ccccc2c1=O` returns the recorded outcome of this test.
Result: 0 (no)

Ask: GET /call?item= `FC(F)(I)C(F)(F)C(F)(F)C(F)(F)C(F)(F)C(F)(F)I` returns the recorded outcome of this test.
Result: 1 (yes)

Ask: GET /call?item= `CCCCCCCCC(=O)O` returns the recorded outcome of this test.
Result: 0 (no)
